Cited source: paper PMC9482650

Target: T1, APBA2_1, Q99767
T1 sequence (Q99767 563-664, limits assumed, looked up): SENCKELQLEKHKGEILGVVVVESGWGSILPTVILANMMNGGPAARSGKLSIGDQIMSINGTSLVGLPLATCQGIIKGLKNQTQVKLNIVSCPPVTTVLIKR
Test: holdup assay
Design: key: below the threshold = too weak to quantify, mostly under pKd 3.1 to 4
Details: plain residues with an end cap or a label only (N-terminal biotin on a linker: ado-ado)
Measured Attribute: pKd

Record excerpt, results attached:
binder="PRISRSQSEL [CCDC134, Q9H6E4]" measured_attribute=pKd value_observed="below the threshold"
binder="GNSVLKSTQF [SLC22A12, Q96S37]" measured_attribute=pKd value_observed="below the threshold"
binder="QGLAERISVL [PRKD2, Q9BZL6]" measured_attribute=pKd value_observed="below the threshold"
binder="DDPSTAETVL [ABCA7, Q8IZY2]" measured_attribute=pKd value_observed="below the threshold"
binder="RRLPGKETMA [GRIK2, Q13002]" measured_attribute=pKd value_observed="below the threshold"
binder="PEYLGLDVPV [ERBB2, P04626]" measured_attribute=pKd value_observed="below the threshold"
binder="SSALYGESDL [ACTN2, P35609]" measured_attribute=pKd value_observed="below the threshold"
binder="EKKTLIGIKL [GOT1L1, Q8NHS2]" measured_attribute=pKd value_observed="below the threshold"

Input line: # query: pKd of entry TACCHSETVV [TGFA, P01135]
Output line: below the threshold

Input line: # query: pKd of entry TKGPRGPTRV [SAPCD1, Q5SSQ6]
Output line: below the threshold
